assayed system: T1, human CX3CR1 (human, UniProt P49238 1-355)
T1 construct: Overexpressed on CHO K1, Ba/F3 or HEK293T cells; also called huCX3CR1; hCX3CR1
T1 sequence: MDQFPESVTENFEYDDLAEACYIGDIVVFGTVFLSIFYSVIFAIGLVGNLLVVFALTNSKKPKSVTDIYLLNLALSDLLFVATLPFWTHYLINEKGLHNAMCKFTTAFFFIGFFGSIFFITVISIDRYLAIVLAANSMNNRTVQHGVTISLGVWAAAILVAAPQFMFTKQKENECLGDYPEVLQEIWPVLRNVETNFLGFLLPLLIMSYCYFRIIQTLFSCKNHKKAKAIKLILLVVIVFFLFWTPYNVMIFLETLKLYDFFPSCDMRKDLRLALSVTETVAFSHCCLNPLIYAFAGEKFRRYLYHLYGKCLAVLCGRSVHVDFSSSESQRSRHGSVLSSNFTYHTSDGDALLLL
assay info: competition flow cytometry vs soluble huCX3CL1-AF647 on CHO K1 huCX3CR1 cells, 30 uM HSA
measured parameter: IC50 (nM)
Report only the number, with the unit nM understood.

// recorded IC50 for A041600041 (VHH, Trivalent ISVD construct (two anti-CX3CR1 ISVDs, one anti-albumin ISVD), C-terminal alanine included in the entry; also called 54A12_SO (E1D)-9GS-66B02_SO-9GS-ALB23002-A) DVQLVESGGGSVQPGGSLRLSCAASGSIFSSTAMAWYRQAPGKQRDLVAVISTVGITKYADSVKGRFTISRDNAKNTVYLQMNSLRPEDTALYYCTSDARRGWDTRYWGQGTLVTVSSGGGGSGGGSEVQLVESGGGSVQPGGSLRLSCAASGSIFSSTAMAWYRQAPGKRRDLVAAINTVGVTKYADSVKGRFTISRDNAKNTVYLQMNSLRPEDTALYYCTSDPRRGWDTRYWGQGTLVTVSSGGGGSGGGSEVQLVESGGGVVQPGGSLRLSCAASGFTFRSFGMSWVRQAPGKGPEWVSSISGSGSDTLYADSVKGRFTISRDNSKNTLYLQMNSLRPEDTALYYCTIGGSLSRSSQGTLVTVSSA : 2.7
